# assayed.target: UDP-glucuronosyltransferases (UGTs) (family) (Homo sapiens, UniProt O60656+O75310+O75795+P06133+P0DTE4+P0DTE5+P16662+P19224+P22309+P22310+P35503+P35504+P36537+P54855+Q6UWM9+Q9BY64+Q9HAW7+Q9HAW8+Q9HAW9)
# assay.procedure: Drug metabolism in human liver microsome S9 fraction assessed as UGT-mediated metabolism by measuring compound remaining at 5 uM pretreated with UDPGA and measured after 30 mins by UPLC-MS/MS analysis
# Type: ADME, microsomes
# applied.conditions: liver microsome S9 fraction, read-out: Stability
endpoint.label: remaining at 0.5 h, 5 µM (%)
Dear colleague, please return just the value in %, with no unit written.

chemical.structure	remaining at 0.5 h, 5 µM, %
Nc1ncnc2c1c(-c1ccc(Cl)cc1)cn2[C@@H]1O[C@H](CO)[C@@H](O)[C@H]1O	96

Could you share which remaining at 0.5 h, 5 µM value was measured for Nc1ncnc2c1c(-c1ccc(Cl)cc1)cn2[C@@H]1O[C@H](CO)C[C@H]1O ?
106

---

# Test system: UGT
# assay.procedure: Drug metabolism in rat liver microsome S9 fraction assessed as UGT-mediated metabolism by measuring compound remaining at 5 uM pretreated with UDPGA and measured after 30 mins by UPLC-MS/MS analysis
# Type: ADME, microsomes
# applied.conditions: liver microsome S9 fraction, read-out: Stability
endpoint.label: remaining at 0.5 h, 5 µM (%)
# value in %; strip the unit string

chemical.structure	endpoint.label	experimental.result
Nc1ncnc2c1c(-c1ccc(Cl)cc1)cn2[C@@H]1O[C@H](CO)C[C@H]1O	remaining at 0.5 h, 5 µM	96

Below: the item to evaluate.
Which remaining at 0.5 h, 5 µM is listed for Nc1ncnc2c1c(-c1ccc(Cl)cc1)cn2[C@@H]1O[C@H](CO)[C@@H](O)[C@H]1O ?
93

---

# assayed.target: Cytochrome P450 (family) (Homo sapiens, UniProt P04798+P05177+P05181+P08684+P10632+P10635+P11509+P11712+P13584+P20813+P20815+P20853+P24462+P24903+P33260+P33261+P51589+P78329+P98187+Q02928+Q08477+Q16678+Q16696+Q5TCH4+Q6VVX0+Q7Z449+Q8TAV3+Q96SQ9+Q9HB55)
# assay.procedure: Drug metabolism in human liver microsome S9 fraction assessed as CYP450-mediated metabolism by measuring compound remaining at 5 uM pretreated with NADPH and measured after 60 mins by UPLC-MS/MS analysis
# Format: ADME, microsomes
# applied.conditions: liver microsome S9 fraction, read-out: Stability
endpoint.label: remaining at 1 h, 5 µM (%)
# output: bare number, implied unit %

chemical.structure	experimental.result
Nc1ncnc2c1c(-c1ccc(Cl)cc1)cn2[C@@H]1O[C@H](CO)C[C@H]1O	93

Field: next compound
For the compound Nc1ncnc2c1c(-c1ccc(Cl)cc1)cn2[C@@H]1O[C@H](CO)[C@@H](O)[C@H]1O , what remaining at 1 h, 5 µM is on record?
86

---

# Test system: Trypanosoma cruzi
# assay.procedure: Trypanocidal activity against Trypanosoma cruzi Y strain bloodstream trypomastigotes isolated from infected Swiss mouse […] assessed as parasite death after 24 hrs by neubauer chamber based light microscopy
# Assay type: functional, organism-based
pEC50: −log10 of the molar value.
endpoint.label: pEC50

// returns reported pEC50 for input Nc1ncnc2c1c(-c1ccc(Cl)cc1)cn2[C@@H]1O[C@H](CO)C[C@H]1O
< 4.70

Here is the next molecule: Nc1ncnc2c1c(-c1ccc(Cl)cc1)cn2[C@@H]1O[C@H](CO)[C@@H](O)[C@H]1O
< 4.70

Similarly, O=C(Cn1ccnc1[N+](=O)[O-])NCc1ccccc1 ?
4.94

Measured values drawn from ChEMBL document CHEMBL4382200 for this set.
